Below, each entry is listed alongside its reported Max inhibition (%), SRE-luciferase reporter, 1 nM mArtemin.
Target: T1, mArtemin-MMH (mouse)
T1 chain: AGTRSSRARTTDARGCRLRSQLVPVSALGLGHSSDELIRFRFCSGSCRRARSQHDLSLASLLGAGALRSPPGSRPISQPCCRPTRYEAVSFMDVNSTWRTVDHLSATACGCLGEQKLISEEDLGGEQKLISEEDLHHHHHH
Experiment: cell-based or functional assay
Measurement Type: Max inhibition (%), SRE-luciferase reporter, 1 nM mArtemin

Binder	Endpoint Result
H4H33349P (antibody, human IgG4 S228P, kappa, V domains shown, Fully human antibody; also called Artemin mAb; anti-ARTN antibody) VH: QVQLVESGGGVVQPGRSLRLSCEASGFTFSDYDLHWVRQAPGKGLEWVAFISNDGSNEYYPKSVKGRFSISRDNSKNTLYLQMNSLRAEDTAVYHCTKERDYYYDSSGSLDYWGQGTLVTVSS VL: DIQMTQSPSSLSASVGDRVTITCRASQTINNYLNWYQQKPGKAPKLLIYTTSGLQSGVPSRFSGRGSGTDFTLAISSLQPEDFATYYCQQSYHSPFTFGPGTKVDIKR	100%
H4H33336P (antibody, human IgG4 S228P, kappa, V domains shown, Fully human antibody; also called Artemin mAb; anti-ARTN antibody) VH: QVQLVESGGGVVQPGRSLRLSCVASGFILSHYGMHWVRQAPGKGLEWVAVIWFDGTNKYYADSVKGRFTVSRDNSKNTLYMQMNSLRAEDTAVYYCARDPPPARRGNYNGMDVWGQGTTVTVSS VL: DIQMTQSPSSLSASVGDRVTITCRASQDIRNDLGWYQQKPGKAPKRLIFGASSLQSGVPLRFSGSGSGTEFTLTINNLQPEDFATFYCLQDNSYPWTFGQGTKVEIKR	100%
H4H33335P (antibody, human IgG4 S228P, kappa, V domains shown, Fully human antibody; also called Artemin mAb; anti-ARTN antibody) VH: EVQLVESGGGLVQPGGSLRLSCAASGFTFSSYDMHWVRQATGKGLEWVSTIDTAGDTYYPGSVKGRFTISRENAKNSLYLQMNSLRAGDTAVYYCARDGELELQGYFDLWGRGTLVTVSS VL: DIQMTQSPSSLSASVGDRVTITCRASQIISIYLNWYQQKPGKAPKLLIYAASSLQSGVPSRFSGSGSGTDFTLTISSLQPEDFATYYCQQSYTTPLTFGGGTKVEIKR	95%
H4H33331P (antibody, human IgG4 S228P, kappa, V domains shown, Fully human antibody (human variable and constant domains) from a VELOCIMMUNE mouse; also called Artemin mAb; anti-ARTN antibody) VH: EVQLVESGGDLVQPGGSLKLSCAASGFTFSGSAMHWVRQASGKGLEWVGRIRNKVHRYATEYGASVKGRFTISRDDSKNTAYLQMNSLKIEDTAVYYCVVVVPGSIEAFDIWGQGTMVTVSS VL: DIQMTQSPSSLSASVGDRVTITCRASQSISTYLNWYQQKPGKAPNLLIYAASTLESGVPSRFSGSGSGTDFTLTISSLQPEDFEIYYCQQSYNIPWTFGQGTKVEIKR	100%
